Collected IC50 values appear next to each entry.
Target: cGAS (Homo sapiens)
Sequence (Q8N884 whole entry): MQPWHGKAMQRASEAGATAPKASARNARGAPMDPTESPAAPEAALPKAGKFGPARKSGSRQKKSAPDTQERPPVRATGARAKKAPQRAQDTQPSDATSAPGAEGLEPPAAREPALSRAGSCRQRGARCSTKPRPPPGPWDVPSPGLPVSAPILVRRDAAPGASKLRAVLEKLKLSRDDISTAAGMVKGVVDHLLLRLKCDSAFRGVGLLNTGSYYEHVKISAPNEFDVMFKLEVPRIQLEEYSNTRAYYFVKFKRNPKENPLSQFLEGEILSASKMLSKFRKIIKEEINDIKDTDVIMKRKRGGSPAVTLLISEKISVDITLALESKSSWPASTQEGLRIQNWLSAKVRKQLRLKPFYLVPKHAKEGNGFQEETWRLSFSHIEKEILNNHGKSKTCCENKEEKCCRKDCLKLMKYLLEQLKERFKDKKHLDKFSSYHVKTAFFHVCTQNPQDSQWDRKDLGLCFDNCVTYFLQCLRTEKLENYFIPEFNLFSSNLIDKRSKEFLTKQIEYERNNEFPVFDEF
Test: Transcreener cGAS enzymatic assay (FP)
Type: biochemical
Conditions: high ATP and GTP (1 mM) to mimic physiological conditions; read-out: IC50 FP Physiological
Procedure: Structural, biochemical and biophysical analysis and selectivity profiling: Potency and MOA studies, including Mn^2+ sensitivity, were performed using the Transcreener cGAS enzymatic assay, which is manufactured at BellBrook Labs (Fitchburg, Wisconsin, USA). […] Plates are read on a PHERAstar FSX multimode reader (BMG). […] The IC50 values for FP under standard and under physiological conditions were determined for several exemplary compounds of the invention. […]

Query: Record lookup: for cGAS (Homo sapiens), what IC50 belongs to Cc1nc(N2C[C@@H](CC(=O)Nc3cccc(N4CCC(O)CC4)c3)C[C@H]2C(=O)O)c2oc3ccccc3c2n1 [Compound 58] ?
Result: 1000 to 5000 nM

Query: Record lookup: for cGAS (Homo sapiens), what IC50 belongs to Cc1nc(N2C[C@@H](CC(=O)N(C)C3CCCC3)C[C@H]2C(=O)O)c2oc3ccccc3c2n1 [Compound 2] ?
Result: 500 to 1000 nM

Query: Record lookup: for cGAS (Homo sapiens), what IC50 belongs to COc1cc(NC(=O)C[C@H]2C[C@@H](C(=O)O)N(c3nc(C)nc4c3oc3ccccc34)C2)ccn1 [Compound 6] ?
Result: 1000 to 5000 nM

Query: Record lookup: for cGAS (Homo sapiens), what IC50 belongs to Cc1nc(N2C[C@@H](CC(=O)Nc3ccc(-c4ccnc(N)c4)cc3)C[C@H]2C(=O)O)c2oc3ccccc3c2n1 [Compound 41] ?
Result: 500 to 1000 nM

Query: Record lookup: for cGAS (Homo sapiens), what IC50 belongs to Cc1nc(N2C[C@@H](CC(=O)Nc3ccc(-c4cccnn4)cc3)C[C@H]2C(=O)O)c2oc3ccccc3c2n1 [Compound 44] ?
Result: 200 to 500 nM

Query: Record lookup: for cGAS (Homo sapiens), what IC50 belongs to Cc1nc(N2C[C@@H](CC(=O)Nc3ccc(N4CCOC4=O)cc3)C[C@H]2C(=O)O)c2oc3ccccc3c2n1 [Compound 52] ?
Result: 1000 to 5000 nM

Query: Record lookup: for cGAS (Homo sapiens), what IC50 belongs to Cc1nc(N2C[C@@H](CC(=O)Nc3ccc(-c4ccc(CO)cc4)cc3)C[C@H]2C(=O)O)c2oc3ccccc3c2n1 [Compound 60] ?
Result: 200 to 500 nM

Query: Record lookup: for cGAS (Homo sapiens), what IC50 belongs to Cc1nc(N2C[C@@H](CC(=O)Nc3ccc4nc[nH]c4c3)C[C@H]2C(=O)O)c2oc3ccccc3c2n1 [Compound 29] ?
Result: 500 to 1000 nM

Query: Record lookup: for cGAS (Homo sapiens), what IC50 belongs to Cc1nc(N2C[C@@H](CC(=O)Nc3ccc(-c4ccc5[nH]ncc5c4)cc3)C[C@H]2C(=O)O)c2oc3ccccc3c2n1 [Compound 38] ?
Result: 200 to 500 nM

Query: Record lookup: for cGAS (Homo sapiens), what IC50 belongs to Cc1nc(N2C[C@@H](CC(=O)Nc3ccc4ncsc4c3)C[C@H]2C(=O)O)c2oc3ccccc3c2n1 [Compound 4] ?
Result: < 200 nM

Query: Record lookup: for cGAS (Homo sapiens), what IC50 belongs to Cc1nc(N2C[C@@H](CC(=O)Nc3ccc(-c4cccnc4N)cc3)C[C@H]2C(=O)O)c2oc3ccccc3c2n1 [Compound 43] ?
Result: 500 to 1000 nM

Query: Record lookup: for cGAS (Homo sapiens), what IC50 belongs to Cc1nc(N2C[C@@H](CC(=O)Nc3ccc(N4CCN(C)CC4)cc3)C[C@H]2C(=O)O)c2oc3ccccc3c2n1 [Compound 9] ?
Result: > 5000 nM

Query: Record lookup: for cGAS (Homo sapiens), what IC50 belongs to Cc1nc(N2C[C@@H](CC(=O)Nc3ccc4cn[nH]c4c3)C[C@H]2C(=O)O)c2oc3ccccc3c2n1 [Compound 30] ?
Result: 1000 to 5000 nM

Query: Record lookup: for cGAS (Homo sapiens), what IC50 belongs to Cc1nc(N2C[C@@H](CC(=O)Nc3ccc(-c4ccccc4)c(C(F)(F)F)c3)C[C@H]2C(=O)O)c2oc3ccccc3c2n1 [Compound 63] ?
Result: 200 to 500 nM

###

Assay: Metabolic stability in human liver microsomes
Format: in vitro ADME
Conditions: read-out: Human MS Stability t1/2
Parameter: half-life

Query: GET /values?readout=half-life&item= Cc1nc(N2C[C@@H](CC(=O)Nc3ccncc3)C[C@H]2C(=O)O)c2oc3ccccc3c2n1 [Compound A, reference compound]
Result: 1.67 to 3.33 h

###

Assay: Pharmacokinetics in C57BL/6 female mice, IV and PO
Type: in vivo
Settings: mouse; PO 30 mg/kg, plasma, C57BL/6 female mice; read-out: AUC0-tidc
Parameter: AUC (ng·h/mL)
Write the value in ng·h/mL as a bare number.

Query: GET /values?readout=AUC&item= Cc1nc(N2C[C@@H](CC(=O)Nc3ccc(-c4ccccc4)cc3)C[C@H]2C(=O)O)c2oc3ccccc3c2n1
Result: 13600

###

Target: mouse cGAS (Mus musculus, UniProt Q8C6L5)
Sequence (Q8C6L5 whole entry): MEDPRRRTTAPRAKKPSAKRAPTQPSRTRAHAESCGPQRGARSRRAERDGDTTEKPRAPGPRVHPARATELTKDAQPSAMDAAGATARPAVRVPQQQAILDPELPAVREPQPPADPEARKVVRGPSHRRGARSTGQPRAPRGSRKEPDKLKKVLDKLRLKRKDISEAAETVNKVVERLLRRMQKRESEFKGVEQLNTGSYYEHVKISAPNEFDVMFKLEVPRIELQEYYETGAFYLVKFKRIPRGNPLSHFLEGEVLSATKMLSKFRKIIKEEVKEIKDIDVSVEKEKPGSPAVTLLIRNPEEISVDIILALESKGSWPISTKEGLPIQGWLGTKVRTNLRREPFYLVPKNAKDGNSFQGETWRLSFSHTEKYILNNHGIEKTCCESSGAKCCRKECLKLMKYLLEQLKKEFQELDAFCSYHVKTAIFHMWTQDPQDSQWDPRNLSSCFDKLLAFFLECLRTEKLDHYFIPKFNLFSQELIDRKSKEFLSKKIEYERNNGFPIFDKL
pIC50: −log10 of the molar value.
Parameter: pIC50

(A) Cc1nc(N2C[C@@H](CC(=O)Nc3ccc4ncsc4c3)C[C@H]2C(=O)O)c2oc3ccccc3c2n1
(B) Cc1nc(N2C[C@@H](CC(=O)Nc3ccc(-c4ccccc4)cc3)C[C@H]2C(=O)O)c2oc3ccccc3c2n1
Query: Quick check, higher pIC50 between A and B ? Your choice should be expressed through its label.
Result: B

###

Assay: Kinetic aqueous solubility (KSOL) in PBS, pH 7.4
Format: physicochemical
Conditions: aqueous buffer, kinetic from dmso stock
Parameter: solubility kinetic (µM)

The following compounds have reported results that may help.
Cc1nc(N2C[C@@H](CC(=O)Nc3ccc(Cc4ccccc4)cc3)C[C@H]2C(=O)O)c2oc3ccccc3c2n1
285
Cc1nc(N2C[C@@H](CC(=O)Nc3ccc(-c4ccccc4)c(C(F)(F)F)c3)C[C@H]2C(=O)O)c2oc3ccccc3c2n1
570
Cc1nc(N2C[C@@H](CC(=O)Nc3ccc4ncsc4c3)C[C@H]2C(=O)O)c2oc3ccccc3c2n1
488
Cc1nc(N2C[C@@H](CC(=O)Nc3ccc(-c4cccc5[nH]ncc45)cc3)C[C@H]2C(=O)O)c2oc3ccccc3c2n1
42
C#Cc1ccc(NC(=O)C[C@H]2C[C@@H](C(=O)O)N(c3nc(C)nc4c3oc3ccccc34)C2)cc1
548

(a) Cc1nc(N2C[C@@H](CC(=O)Nc3ccc4[nH]ncc4c3)C[C@H]2C(=O)O)c2oc3ccccc3c2n1
(b) Cc1nc(N2C[C@@H](CC(=O)Nc3ccc(-c4ccc5[nH]ncc5c4)cc3)C[C@H]2C(=O)O)c2oc3ccccc3c2n1
(c) Cc1nc(N2C[C@@H](CC(=O)Nc3ccc4ccccc4c3)C[C@H]2C(=O)O)c2oc3ccccc3c2n1
Query: Hello, I need these entries ordered by solubility kinetic, highest reading first. Thanks! Your answer should be the labels, listed in the requested order.
Result: a, c, b

###

Test: Metabolic stability in human hepatocytes
Assay type: in vitro ADME
Settings: read-out: Human MS Stability t1/2
Procedure: ADME studies: Compound A and the compounds of the disclosure were tested for aqueous solubility (KSOL), metabolic stability (human and mouse […]) and permeability (Caco-2 and/or MDR1-MDCK cells) to provide an initial indication of oral bioavailability. The favorable physicochemical properties are reflected in promising results in in vitro ADME tests. […]
Collected half-life values appear next to each entry.

The following compounds have reported results that may help.
Cc1nc(N2C[C@@H](CC(=O)Nc3ccc(Cc4ccccc4)cc3)C[C@H]2C(=O)O)c2oc3ccccc3c2n1 [Compound 54]
1.67 to 3.33 h
Cc1nc(N2C[C@@H](CC(=O)Nc3ccc(-c4cccnc4)cc3)C[C@H]2C(=O)O)c2oc3ccccc3c2n1 [Compound 37]
> 5 h
Cc1nc(N2C[C@@H](CC(=O)Nc3ccc(Cl)c(Cl)c3)C[C@H]2C(=O)O)c2oc3ccccc3c2n1 [Compound 26]
> 5 h
Cc1nc(N2C[C@@H](CC(=O)Nc3ccc4ncccc4c3)C[C@H]2C(=O)O)c2oc3ccccc3c2n1 [Compound 32]
> 5 h

Query: GET /values?readout=half-life&item= Cc1nc(N2C[C@@H](CC(=O)Nc3ccc(-c4ccc5[nH]ncc5c4)cc3)C[C@H]2C(=O)O)c2oc3ccccc3c2n1 [Compound 38]
Result: 1.67 to 3.33 h

Query: GET /values?readout=half-life&item= Cc1nc(N2C[C@@H](CC(=O)Nc3ccc(-c4ccccc4)cc3)C[C@H]2C(=O)O)c2oc3ccccc3c2n1 [Compound 5]
Result: 1.67 to 3.33 h

Query: GET /values?readout=half-life&item= Cc1nc(N2C[C@@H](CC(=O)Nc3ccc4ccccc4c3)C[C@H]2C(=O)O)c2oc3ccccc3c2n1 [Compound 31]
Result: 1.67 to 3.33 h
